Measured apparent KD of K4 kissing-loop reporter of individual entries
Tested on: K4 kissing-loop RNA reporter;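 further: bound reporter read as fluorescence of individual clusters on recovered sequencing chips by microscopy, with normalized cluster intensities fitted with a binding model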
Assay: apparent KD of K4 kissing-loop reporter; higher = weaker reporter binding
Settings: Eterna round: R107; input ligand: arginine 13.2 mM
Give just the numeric value; µM need not be written.

The following sequences have reported results that may help.
seq.string	result.units	apparent KD of K4 kissing-loop reporter
UCAAACGAUGGAAGGAGCGCUCGUCAGUCCUGCGAGUGAUGUUCGUGGGUAAAUAGUCGCGAGCAGGUAGGUCGCCAUCUUAAGC [Bisodi]	µM	0.0981
AUGGUAUUGCGAGGAUAUCCUUCCCACGUCGAAGUACCGUGCUUGAUGGAGUGAUGUUCGAUCAGAGGAGAAGGCGCGGUGUUAU [Same State FMN B GF22]	µM	0.368
UUUCGUUGAAGUGAUACCAGACUUGAAAGUGAUGUUUUCCAAUAAAUUAAAUUAUUAGCUGUCCCUUGGCAGCACAGUUUAUUUA [JR_ExcTheophyB_Sub006]	µM	0.345
UCGAGUUGACGAAAAGUCAACUCGUGAGAUACCAGUGACGAAAGUCACCCUUGGCAGCUCACUGCCAGUGAUGUUGGUAUAUAGA [#05 K4 Theophylline A Same State]	µM	0.0808
UGAUAGGACAGAAGGAGCGGGAGUGAUGUUCCCAAAAUGGAAGGUCGACAAAGUCGACCCUCCCAGGUAGGUCGCUGUCCUAUCU [ArgBX 6 #SwitchBubble #StaticStem]	µM	0.101

response.value for GUGGUACAGGCGGCCGCCACUAGUGAUGUUAGUGUUAGAAGAUAUAGUAUAUAUCGGCAUUUGUUUAGGACCGGGCCUGGUGGAG [aqzacmullin] (field: apparent KD of K4 kissing-loop reporter) = 0.166

response.value for GGUGGCUUACAAAGCUCAGUGAUGUUGAGCCGAGGACCGGUACGGCCGCCACUCGUUUGCCAUUCACUACAGUUACAAGCACUAG [theeternabot_exclusion_KL_Trp_A_2] (field: apparent KD of K4 kissing-loop reporter) = 0.217

response.value for UGCGCUAUGUCCUAAAAUGUCCUCCGGGAUACCAGAGUCUUUUUAUUCCCUUGGCAGCUUGAGUGAUGUUUGAUGCCGUUCUUGU [nnbvmullin] (field: apparent KD of K4 kissing-loop reporter) = 0.294

response.value for GCAGUGAUGUUGCGGAUGUACAGUGGCGUGCGAGGACCGGUACGGCCGCCACUCGUACAGAGCAAGCUAAUACAUCGAUAGGUGA [whbob_SS_Tryp_A_m4] (field: apparent KD of K4 kissing-loop reporter) = 0.223

response.value for GCUACUGCUGAAGGAUAUAUCAAUAGAGUGAUGUUCUAUGUCGGUAGCCCGAAAGGGCUACCGACGAUAGAAGGUCAGCAGUAGC (field: apparent KD of K4 kissing-loop reporter) = 1.02

response.value for AUGGGCGAGGUAACGUGGAUAUCUCGUCGCAAGGAUAUCUGGAAACAGAGAAGGUGCUACAUUACCGGCAGUGAUGUUGCUGACC (field: apparent KD of K4 kissing-loop reporter) = 0.231

response.value for AAAGAUCUUCUAGAAACUAGAAGAUCAAGAGAGGAUAUCCGAAUUCGGAGAAGGCUCACUAAGUGAUGUUUGGAGGGAAUCCCAA [AK1 SS FMN A] (field: apparent KD of K4 kissing-loop reporter) = 0.805

response.value for AGGUGAGACUGAAGGAGCGAUCGCGCUAGUGAUGUUGGCGAGCAUGACAAAGUCAUGCACGAUCAGGUAGGUCGCAGUCUUACUC [Omei KL Arginine B SS B v1] (field: apparent KD of K4 kissing-loop reporter) = 0.103

response.value for GGAGUUACCUGGGAUACCAGUCGGAGUCCCAGAGCUCGGAGUGAUGUUCUGGGAUGUUUCGGCCCUUGGCAGCUCUGGGACUCCC [#2 Exclusion - Theophylline B Attempt #9 (HarryS)] (field: apparent KD of K4 kissing-loop reporter) = 0.597

response.value for AAUAACUAGUAUAUUUUUAAUAAUACAGAUACCAGUGAUAAUAGACACCCUUGGCAGCUGAUCGAGUGAUGUUCGUUUAUUUUAA [#11 K4 Theophylline A Same State] (field: apparent KD of K4 kissing-loop reporter) = 0.0869

response.value for CCAGAAUAAUGAAGAUGAUAAAUUACUGAAGGAGCGCAUAUAGUUGCAGGUAGGUCGCGGUGAAUAAGUAUAGUGAUGUUAUACC [SSArgA.Ad] (field: apparent KD of K4 kissing-loop reporter) = 0.209

response.value for CGCACACUUGUUGAUACCAGAAGCCGACCGGAAACAUCAUUGAGUGAUGUUCAAGCUGUUUUCCCUUGGCAGCAAACGAGUGGUC [theeternabot_exclusion_KL_Theo_B_22] (field: apparent KD of K4 kissing-loop reporter) = 0.12

response.value for AUGGCACCUGCGGCCGCCACUCACUCCGGGCUGCUGGCCAGUGAUGUUGGUACGGCUGCCGGUUAGAGGACCGGGCAGGAGCUAA [Rienisdite] (field: apparent KD of K4 kissing-loop reporter) = 0.103

response.value for CGAGUCCUGAGGAGUGAUGUUCCUCGGCCACGAGGACCGGUACGGCCGCCACUCGUUACUCGAGCUUAGUAGCUAGCACUAAGCC [Zaussora] (field: apparent KD of K4 kissing-loop reporter) = 0.164

response.value for GGGCUGGUGCUAGGAUAUGCGAUGAAUGCUCAGGAAACCUUGAGUCCGCAGUGAUGUUGCGGCACCGCAGAAGGAGCUUAGGCUC [Esbequ] (field: apparent KD of K4 kissing-loop reporter) = 0.263

response.value for CCUAUCUCAUACGAUACCAGUGAAUUUAUGUUUAUUAGCAGUGAUGUUGCGUUCCAAGUACACCCUUGGCAGCGUAUGGGAUAGG [Ex Theophylline B K4 24] (field: apparent KD of K4 kissing-loop reporter) = 0.168

response.value for GCUAUGGUAGGAAGGAGCGCUGCCUUGUUUUUACGAGUGAUGUUCGGAAGCAGGGCGUUAAAGCAGGUAGGUCGCCUACUAUAGC [Arginine B K4 22] (field: apparent KD of K4 kissing-loop reporter) = 0.135

response.value for UGACUACAUAAGGAAUAAUCCUAGUGAUGUUAGGAUAUGCUGAUAAGCAGAAGGAACGGAGAUCGAAGGAUCUCAUAUGUAGUCU [whbob_Ex_FMNA__2th194] (field: apparent KD of K4 kissing-loop reporter) = 0.101

---

Tested on: MS2 coat protein
Assay: apparent KD of MS2 coat protein; designed switch direction (-1 OFF switch, 1 ON switch): -1; higher = weaker reporter binding
Conditions: input ligand: FMN 200 uM
reported.endpoint: apparent KD of MS2 coat protein (nM)
Give just the numeric value; nM need not be written.

The following sequences have reported results that may help.
seq.string	result
UGAUCAGACCGAGGAUAUAUAUGUAGGACCCACGUGAGUGGGUCCAGAACAUGAGGAUCACCCAUGUAGAAGGCGGUCUGAUCU [JL ENG2 1.88] (Eterna round: R96, puzzle: Exclusion NG 2)	19
CGUUGAAUAGGAUAUACAUGAGGAUCACCCAUGUGAAAUUAUAGUGAGGAAAUGAAAAGUAGAAGGGUUUGACA [Mod of Mat 8 - Jieux - Exclusion 3] (Eterna round: R97, puzzle: Exclusion 3)	27.6
GGUCCUGAUGAUUUUCUAUACAUGAGGAUCACCCAUGUAUGUGUAUUUUGUUUUUCGCUUUUUGGUCGUCAAUAAUA [Mod-Hoo-honey] (Eterna round: R97, puzzle: Sensor, turn-off variant 1)	43.8
GCAUUCUGAGGAUAUACAUGAGGAUCACCCAUGUUGAGAAAUAAGAAUAAGUACUUAAGUAGAAGGCAGAGUGC [JR_Ex3_Sub074] (Eterna round: R97, puzzle: Exclusion 3)	61.6
AGAAGUAUAGGAUAUACGUCUGCGCACAUGAGGAUCACCCAUGUCGUGUUCCGUGGCAGAGUAGAAGGGUACGGAC [EX5 B.11] (Eterna round: R97, puzzle: Exclusion 5)	305
CAGCCCUGAGGAUAUCCAUCCUUGUACAUGAGGAUCACCCAUGUCUCCCUCUGGGCUUUCGGAGAAGGCAGGUAUC [Megrez-6.2] (Eterna round: R97, puzzle: Exclusion 5)	43.2
CAGUACUGAGGAUAUACAUGAGGAUCACCCAUGUGUGAGAUACUAGUGAGGUCGAUUAGUAGAAGGCAGUACUG [Mat X3R4 m25] (Eterna round: R97, puzzle: Exclusion 3)	957
UACCGUGGUUAGGAUAUACCGUGACACCGCUGAGUAGAAGGAACCACAUGAGGAUCACCCAUGUAAUAUGAAGG [Eternabot (L2) Solution 94] (Eterna round: R97, puzzle: Exclusion 6)	159
GGGUGACAUGAGGAUCACCCAUGUCAGGAUAUGAUACUAUGUACUUCGGUACAUAGUAUCAGAAGGGACAUCAU [Ex1-3: 14] (Eterna round: R96, puzzle: Exclusion 1)	112
GACAUGAGGAUCACCCAUGUAAGGGAUGAACUUCUGGGUAGCUAGGAUAUGGCUACAAAGGUGGACCAGAAGGAGCGUACCCUU [Amaqura] (Eterna round: R96, puzzle: Exclusion NG 3)	10.6

response.value for UGUUGUUGCGCAGGAUAUUGCCAACAGGCAGUAGGAUAUCCGAAAGGAGAAGGACCGCCAACAGGCGAGAAGGGCGGGACAACU [pwkr exNG2 2xF7 2xFMN.12] (Eterna round: R96, puzzle: Exclusion NG 2) (field: apparent KD of MS2 coat protein) = 93.9
